# Tested on: PPARg:RXRa 30nM:10nM, anti-RXR (NR concentration 30 nM, RXRa partner concentration 10 nM)
# ASSAY_NAME: PBM binding z-score (relative to random genomic background probes); higher = stronger binding; sequences stand for … in GC…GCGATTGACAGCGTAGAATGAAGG
Each entry gets False if its PBM binding z-score stays under 2, and True if its PBM binding z-score is 2 or above.

Some solved cases for reference:
POLYMER_SEQUENCE: GGACCAAGGTGAATAGGTCGTTGATGAGTAGGCG
TEST_TARGET: PPARg:RXRa 30nM:10nM, anti-RXR (NR concentration 30 nM, RXRa partner concentration 10 nM)
QUALITATIVE_LABEL: False
//
POLYMER_SEQUENCE: GCGACTGGGTCATCAGCAGGTTACCATAACTTAA
TEST_TARGET: PPARg:RXRa 30nM:10nM, anti-RXR (NR concentration 30 nM, RXRa partner concentration 10 nM)
QUALITATIVE_LABEL: False
//
POLYMER_SEQUENCE: TAGCCTAAGTCATTCAGGGGCCAGTATAGAAAGC
TEST_TARGET: PPARg:RXRa 30nM:10nM, anti-RXR (NR concentration 30 nM, RXRa partner concentration 10 nM)
QUALITATIVE_LABEL: False
//
POLYMER_SEQUENCE: ATCGAAAGGTCGTGAGGTGAGCATACAGAAAGGC
TEST_TARGET: PPARg:RXRa 30nM:10nM, anti-RXR (NR concentration 30 nM, RXRa partner concentration 10 nM)
QUALITATIVE_LABEL: False
//
POLYMER_SEQUENCE: AGTACGAGGGCAATGAGTTGATAGCACGGGTGGC
TEST_TARGET: PPARg:RXRa 30nM:10nM, anti-RXR (NR concentration 30 nM, RXRa partner concentration 10 nM)
QUALITATIVE_LABEL: False

Please check the record `TCATATAGGTAGAGGTGAAAGTCGAACGATATGA` and state if its PBM binding z-score is at or above 2.
True

###

# System: RARb homodimer (NR concentration 270 nM)
# ASSAY_NAME: PBM binding z-score (relative to random genomic background probes); higher = stronger binding; sequences stand for … in GC…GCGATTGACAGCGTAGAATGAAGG
ASSAY_METRIC: PBM binding z-score

Consider the reported PBM binding z-score for these sequences:
POLYMER_SEQUENCE: TCCTGTAGATCAGCAGGTTAAGAAAGCTGGCCAA
TEST_TARGET: RARb homodimer (NR concentration 270 nM)
PBM binding z-score: -0.00726
//
POLYMER_SEQUENCE: TAGCCTACGTCATGGGCCAGTATACCACGCGAAC
TEST_TARGET: RARb homodimer (NR concentration 270 nM)
PBM binding z-score: -0.00941
//
POLYMER_SEQUENCE: CGTCCAAGGTCAAAGGGCAGTGAAGAGATGACGG
TEST_TARGET: RARb homodimer (NR concentration 270 nM)
PBM binding z-score: 4.39
//
POLYMER_SEQUENCE: TTTGCTAGGTCAACGATGGTCAGCTAATCTGCTA
TEST_TARGET: RARb homodimer (NR concentration 270 nM)
PBM binding z-score: 3.69

Tell me the measured PBM binding z-score of `TAGCCTAGGTCAGATCGAGCCAGTATACGCTATA` , please.
1.71

Tell me the measured PBM binding z-score of `TATACAGGGACAAAGGCCAGAGTACGAATGTCGA` , please.
1.4

Tell me the measured PBM binding z-score of `ATATGTAGGTTAAGGGTCGTTCAGGTTGGTTCGC` , please.
2.6

Tell me the measured PBM binding z-score of `TCGTGTAGATCAATAGAGGTTAAGAAAGTGCGCT` , please.
1.47

Tell me the measured PBM binding z-score of `ACTAGCAAGCCAAGTTTGGGTCACTCAAACAAAG` , please.
1.51

Tell me the measured PBM binding z-score of `GCTAGCAGGCCTTTTGGGTCACTCAATGACGGGC` , please.
1.39

Tell me the measured PBM binding z-score of `TAGGCTAGGTCATTCAGGGGCCAGTATAGAAAGC` , please.
3.57

Tell me the measured PBM binding z-score of `ATCTCTACGTAACCAAGTTCAGTGAATGCCGAAC` , please.
1.18
